Biological target: HLA-A*3101 (purified HLA class I molecule) (human)
Assay: inhibition of 125I probe peptide binding to purified HLA; ratio to standard peptide
property_label: relative binding ratio

GSGAFGTVYK (also called Her2/neu.727 (10-mer)) [HER2/neu peptide, position 727, 10 amino acids]: 0.0014 ratio (IC50 standard / IC50 test)
CVARCPSGVK (also called Her2/neu.596 (10-mer)) [HER2/neu peptide, position 596, 10 amino acids]: 0.0008 ratio (IC50 standard / IC50 test)
CVNCSQFLR (also called Her2/neu.528) [HER2/neu peptide, position 528, 9 amino acids]: 0.53 ratio (IC50 standard / IC50 test)
GTQRCEKCSK (also called Her2/neu.327 (10-mer)) [HER2/neu peptide, position 327, 10 amino acids]: 0.014 ratio (IC50 standard / IC50 test)
DLSYMPIWK (also called Her2/neu.607 (9-mer)) [HER2/neu peptide, position 607, 9 amino acids]: 0.0002 ratio (IC50 standard / IC50 test)
